test system: IGROV1 ovarian; assay: NCI tumour cell line growth inhibition, 48 h
Overview of recorded TGI for various compounds
reported endpoint: TGI

                                    compound   target_system  reported_endpoint   reported
 0  COc1cc2c(c(OC)c1)C1c3ccccc3NC(=O)N1CC2 (centres undefined)  IGROV1 ovarian                TGI   > 100 µM
 1  Cc1cc(N(CCC#N)CCC#N)ccc1N=Nc1cccc(C(=O)O)c1  IGROV1 ovarian                TGI   > 100 µM
 2  CCOC(=O)c1cc(NS(=O)(=O)c2ccccc2)cc(C(=O)OCC)c1  IGROV1 ovarian                TGI   > 100 µM
 3  O=C(/C=C/c1csc(-c2ccccc2)n1)NCc1ccc(C(=O)NCCc2ccccc2)cc1  IGROV1 ovarian                TGI   > 100 µM
 4                      C=CCNc1nc(C#N)c(N)s1  IGROV1 ovarian                TGI    > 10 µM
 5  CC(C)(Br)C(Br)CCC(C)(Br)C(Br)CO (centres undefined)  IGROV1 ovarian                TGI    > 10 µM
 6  CCOC(=O)CSc1nc(N)c2c(-c3ccc(OC)c(OC)c3)c3c(nc2n1)CCCC3  IGROV1 ovarian                TGI   > 100 µM
 7  COc1cc(OC(C)=O)cc2c(OC(C)=O)ccc(OC(C)=O)c12  IGROV1 ovarian                TGI   > 100 µM
 8            CC(=O)Nc1cc([As](=O)(O)O)ccc1O  IGROV1 ovarian                TGI   > 100 µM
 9  CCOP(=O)(OCC)C1CC(O)C(=O)N1 (centres undefined)  IGROV1 ovarian                TGI   > 100 µM
10  Oc1cccc2ccc(N/N=C/c3cc(CN4CCCCC4)c(O)c4ncccc34)nc12  IGROV1 ovarian                TGI    18.4 µM
11                    CCN(CC)CSc1nc2ccccc2s1  IGROV1 ovarian                TGI   > 100 µM
12  CCN(CC)CC(C)Nc1ccc([N+](=O)[O-])c2sc3ccccc3c(=O)c12 (centres undefined)  IGROV1 ovarian                TGI    4.18 µM
13      Cc1cccc2nc3c(C(=O)NCCN(C)C)cccc3cc12  IGROV1 ovarian                TGI    7.11 µM
14  C=CCC[CH2][Sn]([c]1ccccc1)([c]1ccccc1)[c]1ccccc1  IGROV1 ovarian                TGI    3.35 µM
15  Cc1ccc(N=Nc2c(O)c(C(=O)O)cc3ccccc23)cc1C  IGROV1 ovarian                TGI   > 100 µM
16            O=c1cc(-c2ccccc2)[nH]c2ccccc12  IGROV1 ovarian                TGI  > 33.7 µM
17   CCOC(=O)N(Cc1cccs1)c1cc(OC)c(OC)c(OC)c1  IGROV1 ovarian                TGI   > 100 µM
18  CC1OC(O[C@@H]2OC=C(C=O)[C@@]3(O)CC[C@H](C)[C@@H]23)C(O)C(O)C1O (some centres undefined)  IGROV1 ovarian                TGI   > 100 µM
19  C=CCOc1ccc(/C(N=Nc2ccc(Cl)cc2)=N/NC(=O)c2ccccc2)cc1OC  IGROV1 ovarian                TGI   > 100 µM
20  Cc1nc2cccc(F)c2c(=O)n1C1CCCCNC1=O (centres undefined)  IGROV1 ovarian                TGI    > 10 µM
21               NCCn1c(=O)[nH]c(=O)[nH]c1=S  IGROV1 ovarian                TGI   > 100 µM
22      CCOC(=O)c1c(N2CCCC2)nsc1Nc1ccc(F)cc1  IGROV1 ovarian                TGI   > 100 µM
23           O=C(/C=C/c1ccccc1)c1cc(Br)ccc1O  IGROV1 ovarian                TGI      25 µM
